Origin of values: PubChem BioAssay (NCATS)

# measurement.target: Mitogen-activated protein kinase 10 (Mus musculus) (UniProt Q61831)
# assay.method.text: JNK3 AlphaScreen Assay (AID 530);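 also: kinase came from lysate of stimulated human HepG2 cells; signal reports phosphorylation of biotinylated GST-cJun 1-79 at Ser73 with 10 µM ATP; % is scaled to controls: 0 for no effect and ±100 for the full control effect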
# test.parameters: JNK3 lysate, c-Jun phosphorylation; series mostly up to 57.1 µM
Results filed as inconclusive are left out. Calls of active or inactive are those of the source. Calls follow the shape of the dose curve; as a rule, active = well fitted curve in either direction with a large enough effect (not every such curve was filed as active); inconclusive = small, poorly fitted or top-dose-only effect, or another doubt; inactive = flat fitted curve, though single readings scatter.
observed.property: activity change, negative = inhibition

C=C[C@@H]1CN2CC[C@H]1C[C@H]2[C@H](O)c1ccnc2ccccc12    5.22% [at 11.4 µM] (inactive)
S=c1[nH]c2ccccc2[nH]1    inactive
N#CC(O)c1ccccc1 (configuration not stated)    inactive
N[C@H](Cn1oc(=O)[nH]c1=O)C(=O)O    inactive
CN(C)CS/C(N)=N/[C@H](O)C(Cl)(Cl)Cl    3.54% [at 11.4 µM] (inactive)
O=S(=O)(O)/C(=C\c1ccccc1)c1ccccc1 (tested in a mixture with another compound)    4.57% [at 11.4 µM] (inactive)
C=C(Cl)CCl    inactive
N[C@H](CCl)C(=O)O    inactive
C[C@H](Br)C(=O)N[C@H](CO)C(=O)O    0.572% [at 11.4 µM] (inactive)
NS(=O)(=O)c1ccc(-c2ccc([As](=O)(O)O)cc2)cc1    2.57% [at 11.4 µM] (inactive)

May I ask what activity change, negative = inhibition has been recorded for `NCCP(=O)(O)O` ? 3.4% [at 11.4 µM] (inactive)

Reported activity change, negative = inhibition, compound `CCCOC(=O)[C@@H]1[C@@H](C(=O)O)[C@H]2CC[C@@H]1O2` : ____ 6.67% [at 11.4 µM] (inactive)

What value of measured activity change, negative = inhibition is listed for `NC[C@@H](O)CSP(=O)(O)O` ? -5.07% [at 11.4 µM] (inactive)

I am curious: what activity change, negative = inhibition value has been reported for `OC[P+](CO)(CO)CO` ? inactive

Please report the recorded activity change, negative = inhibition for `O=C(O)CSCC(=O)O` . 8.86% [at 11.4 µM] (inactive)

Recorded activity change, negative = inhibition for `Cc1c([C@@H](C)[C@H]2NC[C@H](C)C[C@@H]2O)ccc2c1C[C@@H]1[C@H]2CC=C2C[C@@H](O)CC[C@@]21C` , please? -0.822% [at 11.4 µM] (inactive)

Report activity change, negative = inhibition for `Cc1cc[c]([Sb]2[O][C@H]([C@H](O)[C@H](O)C(=O)O)[C@@H](CO)[O]2)cc1` please. 0.865% [at 11.4 µM] (inactive)

Quick one: activity change, negative = inhibition of `ClCC(Cl)CCl` ? inactive

Would you kindly share the measured activity change, negative = inhibition for `CCN(CC)CCO` ? inactive
